src = the supplement of paper PMC7866885

# Test system: Streptococcus suis HE06
# Procedure text: percent growth relative to DMSO control; higher = less growth inhibition
# Assay conditions: 10 µM; incubation time 18 h
Reported property: percent growth (%)
Response body: numeric value in %, unit text excluded.

Consider the worked cases shown below.
>>> df
                                   compound                   target  reported_property  value_reported
0  CC1CC1C(=O)NC1CCN(CC2(c3ccccc3)CCCCC2)CC1 (stereo unspecified)  Streptococcus suis HE06     percent growth            76.8
1  CCOc1ccc2cc(-c3nn(CC4CCN(C)CC4)c4ncnc(N)c34)ccc2c1  Streptococcus suis HE06     percent growth              97
2  COc1cc(C2=NCCN2)ccc1-c1cn(-c2cccc(C3=NCCN3)c2)nn1  Streptococcus suis HE06     percent growth            82.9

State its percent growth for this compound: Nc1ccc2ncnc(Nc3ccc(OCc4cccc(F)c4)c(Cl)c3)c2c1
111

For CC(C)(C)c1cnc(NC(=O)c2ccccc2O)s1 , write its percent growth.
19.7

Please report the measured percent growth for COc1ccccc1CNC(=O)c1cc(C2CC2)nc2c1cnn2C(C)C
81.6

----------
Entries annotated with measured percent growth
# Tested on: Streptococcus suis HE06
# Procedure text: percent growth relative to DMSO control; higher = less growth inhibition
# Assay conditions: 10 µM; incubation time 18 h
Kindly provide the numeric value in % only, without the unit symbol.

In [3]: df
Out[3]:
                                   molecule                   target  value_reported
0                CC[C@H](CO)NCCN[C@H](CC)CO  Streptococcus suis HE06            88.7
1  c1ccc(-c2[nH]c3ccccc3c2C(c2ccccn2)N2CCCC2)cc1 (stereo not given)  Streptococcus suis HE06            88.5
2    COc1ccc2nc(C)cc(OCC(=O)NCc3ccccc3)c2c1  Streptococcus suis HE06            91.7

Hello, please tell me recorded percent growth for this one: COC(=O)c1c(NC(=O)c2c(F)c(F)c(F)c(F)c2F)sc2c1CCCCC2
105

Return reported percent growth. Input molecule: Cc1ccc(S(=O)(=O)Nc2ccc(CN3CCN(C(=O)c4cccc(C#N)c4)CC3)cc2)cc1
104

----------
# Tested on: Streptococcus suis P1/7
# Procedure text: percent growth relative to DMSO control; higher = less growth inhibition
# Assay conditions: 10 µM; incubation time 18 h
Reported property: percent growth (%)
Numeric only. Scale: %

Check out these entries, answers already filled in.
In [3]: df
Out[3]:
                                   compound  reported_property  value_reported
0  Cc1ccc(NC(=O)CC2COc3ccccc3O2)cc1Cl (stereo not given)     percent growth            95.7
1                   CCN(CC)C(=O)N1CCN(C)CC1     percent growth            91.1
2  Cc1ncc(-c2ccnc(Nc3ccc(S(C)(=O)=O)cc3)n2)n1C(C)C     percent growth             150
3  O=C(C1CCN(c2cc(-n3cccc3)ncn2)CC1)N1CCc2ccccc2C1     percent growth            59.5
4  CC(C(=O)N1CCCC1)N1CCN(S(=O)(=O)c2ccc(C(C)(C)C)cc2)CC1 (stereo not given)     percent growth            63.4

Supply measured percent growth of FC(F)(F)c1cnc(Sc2nnc(-c3ccncc3)o2)c(Cl)c1 in your reply.
67.2

Fill in percent growth for record O=C(NCc1cc(Cl)cc(Cl)c1)c1c(C(F)(F)F)nc2ccccn12
60.6

Check the records and state percent growth for Cc1ccc2oc(-c3cc(NC(=O)Cc4ccccc4)ccc3Cl)nc2c1
78.5

In one line, give reported percent growth of the entry O=S(=O)(c1ccc(Cl)cc1)N1CCN(C(=S)NCc2ccco2)CC1 .
92.6

Identify measured percent growth associated with CNC(=O)c1nn(C)c2c1C(C)(C)Cc1cnc(Nc3ccc(N4CCN(C)CC4)cc3)nc1-2
92.6

----------
# percent growth listing for each entry below
# Test system: Streptococcus suis HE06
# Procedure text: percent growth relative to DMSO control; higher = less growth inhibition
# Assay conditions: 10 µM; incubation time 18 h
Report as a plain number; the unit % is understood.

In [3]: df
Out[3]:
                                   molecule  unit_annotation  value_reported
0  CC(C)(CN)c1nc(-c2ccc(Cl)c(O)c2)c(-c2ccnc(N)n2)[nH]1                %            90.9
1  CC(=O)NCC1CN(c2ccc(-c3ccc(CNCc4cn[nH]n4)cc3)c(F)c2)C(=O)O1 (configuration not stated)                %           0.542
2  C[C@H](C(N)=O)N1CCCC[C@@H]1c1ccc(OCc2cccc(F)c2)cc1                %             125
3  CN1CCN(S(=O)(=O)c2ccc(-c3ccc4c(Nc5ncc(Cl)cn5)ccnc4c3)cc2)CC1                %            92.2
4     O=C(COc1cccc(F)c1)Nc1nc(-c2ccccn2)cs1                %         -0.0745
5   CCCNC(=O)N1CCC2(CC1)CC(=O)c1cc(C)ccc1O2                %            87.9

Query percent growth for CC(C)(C)OC(=O)N1CCN(c2cc(-c3ccc(Oc4ccccc4)cc3)n[nH]2)CC1
89.6

Please report percent growth for the following molecule: CCOC(=O)c1c(NC(=O)c2c(F)c(F)c(F)c(F)c2F)sc(C(N)=O)c1C
91.9

Please look at this molecule and report its percent growth: O=C(Nc1ccc(N2CCNCC2)nc1)c1oc(-c2ccccc2)nc1C(F)(F)F
93.7

In one line, give reported percent growth of the entry O=C(Nc1nnc(-c2ccc(Cl)s2)o1)c1ccc(Cl)s1 .
1.06

Given Cc1cccnc1NC(=O)c1cccc(OCc2c(C)noc2C)c1 , respond with its percent growth.
81.4

----------
# System: Streptococcus suis P1/7
# Procedure text: percent growth relative to DMSO control; higher = less growth inhibition
# Assay conditions: 10 µM; incubation time 18 h
Binary call on percent growth: True from 80% upward, False beneath that.

Tell me whether percent growth is at least 80% here: Cc1[nH]c2ccccc2c1C(c1cccs1)N1CCN(C)CC1 (configuration not stated)
True

Hi team, for COc1ccc(CCN2CCC(NCc3cccc(N(C)C)c3)CC2)cc1 , is the recorded percent growth at or above 80%?
False

Evaluate CS(=O)(=O)N1CCC(Cn2nc(Cc3cccc4ccccc34)c3c(N)ncnc32)CC1 : percent growth at minimum 80%?
False

Does the compound O=C(NCCN1CCCC1)c1cc(NCCN2CCOCC2)nc2ccc(Cl)cc12 have recorded percent growth that is 80% or more?
True

Tell me whether percent growth is at least 80% here: Cc1noc(C)c1C(=O)N1CCCC(c2[nH]c3c(C)cccc3c2-c2ccncc2)C1 (configuration not stated)
True

----------
# System: Streptococcus suis P1/7
# Procedure text: percent growth relative to DMSO control; higher = less growth inhibition
# Assay conditions: 10 µM; incubation time 18 h
Reported property: percent growth (%)
Write down the numeric answer in % and omit the unit.

Answered cases to consult:
                                   molecule  reported_property  unit_annotation  value_reported
0       c1coc(CNc2nc(N3CCCCC3)nc3ccccc23)c1     percent growth                %              89
1  O=C(c1cc2ccccc2o1)N1CCN(Cc2ccc3c(c2)OCO3)CC1     percent growth                %             102
2  O=C(CN1CCOCC1)Nc1ccc2ncnc(Nc3ccc(OCc4cccc(F)c4)c(Cl)c3)c2c1     percent growth                %              63
3    Cc1ccc2nc(C)c(-c3ccn(Cc4ccccc4)n3)n2c1     percent growth                %            62.9
4       Cc1cc(Nc2ccc(C(F)(F)F)cc2)n2ccnc2n1     percent growth                %            97.6
5  COc1ccc(C2=NN(C3CCCCCC3)C(=O)[C@@H]3CC=CC[C@H]23)cc1OCCCCOc1ccc(-c2nn[nH]n2)cc1     percent growth                %            0.12

For the molecule Cc1ccc(Oc2ccc(NC(=O)CNc3ccccc3N3CCCC3=O)cc2)cc1 , give its measured percent growth value.
104

Give the reported percent growth for this molecule. Cc1cc(C)nc(-n2nc(C)cc2Nc2ccccc2)n1
0.0724

Let me know recorded percent growth for Cc1cc(C)n2nc(C(=O)Nc3cc(C(F)(F)F)ccc3N3CCOCC3)nc2n1 , thanks.
81.4

Fill in reported percent growth for this entry: O=C(NCCc1ccn(-c2ccccc2)n1)C1CCCCC1
95
